Source listed as the supplement of paper PMC11061612.

# System: TT (Thyroid Gland Carcinoma)
# measurement-description: combination Emax (second highest fraction inhibited in the dose matrix, 72 h); higher = more inhibition; extreme values may be limits of the assay
We begin with a simple list: items and their reported combination Emax.

- molecule: "CN(CCO)CC[C@H](CSc1ccccc1)Nc1ccc(S(=O)(=O)NC(=O)c2ccc(N3CCC([C@@H](O)c4ccccc4-c4ccc(Cl)cc4)CC3)cc2)cc1S(=O)(=O)C(F)(F)F [AZD4320] + C1CN(CCC1(C(=O)N[C@@H](CCO)C2=CC=C(C=C2)Cl)N)C3=NC=NC4=C3C=CN4 [Capivasertib] (first compound max 1 µM, 7x7, partner max 3 µM)"
  combination Emax: 0.408
- molecule: "COc1nnc2ccc(N3CCC(c4ccc(OCCN5CCN(C)C(=O)[C@H]5C)cc4)CC3)nn12 [AZD5153] + CC1(C)CCC(CN2CCN(c3ccc(C(=O)NS(=O)(=O)c4ccc(NCC5CCOCC5)c([N+](=O)[O-])c4)c(Oc4cnc5[nH]ccc5c4)c3)CC2)=C(c2ccc(Cl)cc2)C1 [Venetoclax] (first compound max 1 µM, 7x7, partner max 1 µM)"
  combination Emax: 0.596
- molecule: "C=CCn1c(=O)c2cnc(Nc3ccc(N4CCN(C)CC4)cc3)nc2n1-c1cccc(C(C)(C)O)n1 [AZD1775] + C1CN(CCC1(C(=O)N[C@@H](CCO)C2=CC=C(C=C2)Cl)N)C3=NC=NC4=C3C=CN4 [Capivasertib] (first compound max 3 µM, partner max 3 µM)"
  combination Emax: 0.264
- molecule: "CC1(C)CCC(CN2CCN(c3ccc(C(=O)NS(=O)(=O)c4ccc(NCC5CCOCC5)c([N+](=O)[O-])c4)c(Oc4cnc5[nH]ccc5c4)c3)CC2)=C(c2ccc(Cl)cc2)C1 [Venetoclax] + Cc1cc2ncnn2cc1Nc1ncc2c(n1)n(C1CCOCC1)c(=O)n2C [AZD7648] (first compound max 1 µM, 7x7, partner max 10 µM)"
  combination Emax: 0.601
- molecule: "NC1(C(=O)N[C@@H](CCO)c2ccc(Cl)cc2)CCN(c2ncnc3[nH]ccc23)CC1 [Capivasertib] + Cn1cnc2c(F)c(Nc3ccc(Br)cc3Cl)c(C(=O)NOCCO)cc21 [Selumetinib] (first compound max 10 µM, 7x7, partner max 10 µM)"
  combination Emax: 0.587
- molecule: "COc1nnc2ccc(N3CCC(c4ccc(OCCN5CCN(C)C(=O)[C@H]5C)cc4)CC3)nn12 [AZD5153] + CCN(CCO)CCCOc1ccc2c(Nc3cc(CC(=O)Nc4cccc(F)c4)[nH]n3)ncnc2c1 [AZD2811] (first compound max 1 µM, 7x7, partner max 1 µM)"
  combination Emax: 0.692
- molecule: "CN(C)CCCOc1ccc(-c2ccc3ncc4c(c3c2)n(C2CCOCC2)c(=O)n4C)cn1 [AZD0156] + O=C(c1cc(Cc2n[nH]c(=O)c3ccccc23)ccc1F)N1CCN(C(=O)C2CC2)CC1 [Olaparib] (first compound max 3 µM, partner max 3 µM)"
  combination Emax: 0.237

---

# Tested on: ARH-77 (Non-Cancerous);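 note: after 72 h of two-drug dosing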
# measurement-description: Bliss excess, mean over the matrix (fraction); higher = more synergy
value-kind: Bliss excess

- molecule: "CC1(C)CCC(CN2CCN(c3ccc(C(=O)NS(=O)(=O)c4ccc(NCC5CCOCC5)c([N+](=O)[O-])c4)c(Oc4cnc5[nH]ccc5c4)c3)CC2)=C(c2ccc(Cl)cc2)C1 [Venetoclax] + COc1cc(Nc2ncc3c(n2)-c2ccc(Cl)cc2C(c2c(F)cccc2OC)=NC3)ccc1C(=O)O [Alisertib] (first compound max 1 µM, 7x7, partner max 10 µM)"
  assayed-target: "ARH-77 (Non-Cancerous)"
  observed-result: 0.278
- molecule: "COc1nnc2ccc(N3CCC(c4ccc(OCCN5CCN(C)C(=O)[C@H]5C)cc4)CC3)nn12 [AZD5153] + C[C@@H]1COCCN1C2=NC(=NC(=C2)C3(CC3)[S@](=N)(=O)C)C4=C5C=CNC5=NC=C4 [AZD6738] (first compound max 1 µM, 7x7, partner max 10 µM)"
  assayed-target: "ARH-77 (Non-Cancerous)"
  observed-result: -0.0293
- molecule: "COc1nnc2ccc(N3CCC(c4ccc(OCCN5CCN(C)C(=O)[C@H]5C)cc4)CC3)nn12 [AZD5153] + C=CCn1c(=O)c2cnc(Nc3ccc(N4CCN(C)CC4)cc3)nc2n1-c1cccc(C(C)(C)O)n1 [AZD1775] (first compound max 1 µM, partner max 1 µM)"
  assayed-target: "ARH-77 (Non-Cancerous)"
  observed-result: -0.066
- molecule: "COc1cc2ncnc(Nc3ccc(F)c(Cl)c3)c2cc1OCCCN1CCOCC1 [Gefitinib] + CC(C)n1c(=O)n(C)c2cnc3cc(F)c(-c4ccc(OCCCN5CCCCC5)nc4)cc3c21 [AZD1390] (first compound max 10 µM, 7x7, partner max 0.3 µM)"
  assayed-target: "ARH-77 (Non-Cancerous)"
  observed-result: -0.0785
